- Tested on: Neuregulin-1 EGF-like domain
- TEST DETAILS: binders of neuregulin-1 EGF-like domain, primary screen, biochemical, small-molecule microarray, 635 nm fluorescence (AID 1081);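 further: binding of the protein to compounds printed on small-molecule microarray slides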
- CONDITION SET: small-molecule microarray binding, higher = more signal
Field: composite z-score. Provide a value for each of the molecules that follow.
Answers are plain numbers.

MOLECULE	composite z-score
COC(=O)c1c2oc(c1C(=O)OC)C(=O)N(Cc1ccccc1)Cc1cn(nn1)C[C@H](Cc1ccccc1)NC(=O)N[C@H](CO)CC2	1.1
C=C(C)C1CCC(C(O)C2C=CC3C(=O)N(C)C(=O)C3N2N2CCCCC2)CC1 (configuration not stated)	1.24
C=CCC(OC(C)=O)[C@@H]1[C@@H](N(Cc2cc3ccccc3o2)C(=O)c2ccc(-c3ccccc3)cc2)c2cc(OCCCO)ccc2N1C(=O)c1ccc2ccccc2c1 (some centres not stated)	-0.341
C=CCOC(=O)[C@H]1[C@@H]2C(=O)O[C@@H](c3ccccc3)[C@@H](c3ccccc3)N2[C@@H](c2ccc(OCCOC(=O)[C@H]3C[C@H]4C(=O)N[C@@H](CCCCNC(C)=O)C(=O)N4[C@H]3c3ccc(O)cc3)cc2)[C@]12C(=O)Nc1ccccc12	0.999
COc1ccc([Si](C)(C)[C@H]2[C@H](CCn3cc([C@H](O)c4ccccc4)nn3)O[C@@]3(C(=O)N(Cc4ccc(N5C(=O)c6cccc7cccc5c67)cc4)c4ccccc43)[C@@H]2C)cc1	1.1
CC1CC/C=C\[C@H]2OC34C=CCN(C(C)C)C(=O)[C@H]3N(CCCCCCO)C(=O)[C@@H]4C2C(=O)O1 (some centres not stated)	0.147
C=CCNC(=O)[C@H]1[C@@H]2C(=O)O[C@@H](c3ccccc3)[C@@H](c3ccccc3)N2[C@@H](c2ccc(O)cc2)[C@]12C(=O)N(C(=O)OCCOC)c1ccccc12	1.29
COC(=O)[C@@]1(Cc2ccc(F)cc2)[C@H]2c3cc(C(=O)N(C)C)n(CCc4ccc(O)c(OC)c4)c3C[C@H]2CN1C(=O)c1ccccc1	1.03
COC(=O)[C@@]1(Cc2ccc(OC)cc2)[C@H]2c3cc(C(=O)N(C)C)n(C[C@H](O)CO)c3C[C@H]2CN1C(=O)c1ccccc1	1.2
C=CCC(OC(C)=O)[C@@H]1[C@@H](N(Cc2cc3ccccc3o2)C(=O)Cc2ccc(F)cc2)c2cc(OCCCO)ccc2N1C(=O)c1ccc2ccccc2c1 (some centres not stated)	-0.432

Hi team, please reply with composite z-score for each item in this list.
1. O=C(NCC(F)(F)F)[C@@H]1c2ccccc2C(=O)N(Cc2ccccc2C(F)(F)F)[C@H]1c1ccc(CO)cc1
2. COc1ccccc1CN1C(=O)c2ccccc2[C@@]2(Cc3ccccc3N(CC(F)(F)F)C2=O)[C@@H]1c1ccc(CO)cc1
3. COC(=O)[C@@]1(Cc2ccc(F)cc2)[C@H]2c3cc(C(=O)N(C)C)n(Cc4cc(F)cc5c4OCOC5)c3C[C@H]2CN1C(=O)c1ccccc1
4. C=C(/C(=C/C[C@H](OC(=O)c1ccncc1)c1ccc(CO)o1)c1cc(C(=O)OC)ccc1OC)C(C)C
5. CC1=C([C@H](O)CCc2ccccc2)[C@H](CO)[C@@H]2C(=O)N(C)C(=O)[C@@H]2C1
6. Cc1ccc(S[C@]2(C(=O)O)CC(=O)N(C3Cc4ccccc4C3)[C@@H]2c2ccc(CO)cc2)cc1
7. NC(=O)NCC#Cc1ccc2c(c1)[C@]1(C(=O)N2)[C@H](C(=O)NC[C@H](O)c2ccccc2)[C@H]2C(=O)O[C@H](c3ccccc3)[C@H](c3ccccc3)N2[C@@H]1c1ccc(OCCO)cc1

RESULT:
[1.3, 0.778, 1.27, 1.23, 0.493, 0.184, 0.537]

Here are 5 molecules. What values of composite z-score were reported for them?
1. COCCOC(=O)N1C(=O)[C@@]2(c3cc(C#CCC(C(=O)OC)C(=O)OC)ccc31)[C@H](C(=O)N1CCc3cc(OC)c(OC)cc3C1)[C@H]1C(=O)O[C@H](c3ccccc3)[C@H](c3ccccc3)N1[C@@H]2c1ccc(OCCO)cc1
2. CC1CC/C=C\[C@H]2OC34C=CCN(c5ccc(Cl)cc5)C(=O)[C@H]3N(CCCCCO)C(=O)[C@]4(C)C2C(=O)O1 (some centres not stated)
3. CC1=C[C@@]2(CO)C(=O)[C@]3(CO3)[C@@H]1[C@H]1[C@]2(C)C=C(CO)C(=O)[C@]12CO2
4. CC=CC(O)C1C=CC2C(=O)N(c3ccccc3)C(=O)C2N1Nc1ccccc1F (configuration not stated)
5. C[C@@H]1ON(c2ccc(C(=O)OC(C)(C)C)cc2)[C@H](c2ccc(O)cc2)[C@H]1C(=O)N1C(=O)OC[C@H]1Cc1ccccc1

RESULT:
1. 1.31
2. 0.429
3. 0.677
4. 1.36
5. 1.05
